B1: Lysozyme C, P61626 (parent)
chain: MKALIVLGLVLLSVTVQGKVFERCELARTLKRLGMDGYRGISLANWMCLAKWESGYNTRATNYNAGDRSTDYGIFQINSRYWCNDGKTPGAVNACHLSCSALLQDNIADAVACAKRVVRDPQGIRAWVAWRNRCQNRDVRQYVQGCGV

Variants of: B1
SETUP_CONDITIONS: Homo sapiens; pH 2.7; Thermal; DSC; Gly-HCl 0.05 M; structure 1LZ1; whole UniProt chain shown
OBSERVED_PROPERTY: change of melting temperature, mutant - wild type (higher = more stable) (°C)

[
  {
    "VARIANT_KEY": "V92Y",
    "UNIT_TEXT": "°C",
    "RESULT": -0.9
  },
  {
    "VARIANT_KEY": "V20S",
    "UNIT_TEXT": "°C",
    "RESULT": -4.4
  },
  {
    "VARIANT_KEY": "V128Y",
    "UNIT_TEXT": "°C",
    "RESULT": -0.5
  },
  {
    "VARIANT_KEY": "V20R",
    "UNIT_TEXT": "°C",
    "RESULT": -1.3
  },
  {
    "VARIANT_KEY": "V92R",
    "UNIT_TEXT": "°C",
    "RESULT": -0.3
  },
  {
    "VARIANT_KEY": "V92S",
    "UNIT_TEXT": "°C",
    "RESULT": 0
  },
  {
    "VARIANT_KEY": "V20N",
    "UNIT_TEXT": "°C",
    "RESULT": -4.1
  },
  {
    "VARIANT_KEY": "V128D",
    "UNIT_TEXT": "°C",
    "RESULT": 0.5
  },
  {
    "VARIANT_KEY": "V128R",
    "UNIT_TEXT": "°C",
    "RESULT": 2.9
  },
  {
    "VARIANT_KEY": "V20D",
    "UNIT_TEXT": "°C",
    "RESULT": -4.5
  },
  {
    "VARIANT_KEY": "V92N",
    "UNIT_TEXT": "°C",
    "RESULT": -1
  },
  {
    "VARIANT_KEY": "V92D",
    "UNIT_TEXT": "°C",
    "RESULT": -1.4
  },
  {
    "VARIANT_KEY": "V128N",
    "UNIT_TEXT": "°C",
    "RESULT": 0.2
  }
]
